Biological target: Purine nucleoside phosphorylase (Bos taurus, UniProt P55859)
Sequence (P55859 whole entry): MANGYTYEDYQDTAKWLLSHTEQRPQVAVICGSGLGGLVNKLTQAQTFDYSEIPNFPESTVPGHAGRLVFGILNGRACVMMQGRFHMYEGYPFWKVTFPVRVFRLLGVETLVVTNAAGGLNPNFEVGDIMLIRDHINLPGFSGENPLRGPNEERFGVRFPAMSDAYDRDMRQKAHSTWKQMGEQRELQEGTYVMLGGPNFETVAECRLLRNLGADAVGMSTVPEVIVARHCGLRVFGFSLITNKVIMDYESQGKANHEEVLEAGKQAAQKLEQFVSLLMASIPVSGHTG
Test: Inhibitory concentration against calf spleen purine nucleoside phosphorylase in the presence of 50 mM (pi) […]
parameter_measured: pIC50
Give bare numbers, as −log10 of the molar value.

Nc1nc(O)c2ncn(Cc3ccccc3CC(F)(F)P(=O)(O)O)c2n1
6.70
Nc1nc(O)c2ncn(Cc3ccccc3/C=C(\F)P(=O)(O)O)c2n1
7.22
Nc1nc(O)c2ncn(Cc3ccccc3/C=C/P(=O)(O)O)c2n1
7.07

Now, please, on to the next compound.
pIC50 lookup needed for Nc1nc(O)c2ncn(Cc3ccccc3C(F)C(F)(F)P(=O)(O)O)c2n1 (centres undefined) , thanks.
7.00
